bioavailability for assorted compounds
- Experiment summary: Oral bioavailability in fasted C57BL/6J mouse at 20 mg/kg
- Type: ADME, organism-based
- Condition context: in vivo
Please reply with the bare figure in % and do not write the unit itself.

> print(dat)
                        structure.as.smiles  data.value
1  O=C(O)COc1ccc(S(=O)(=O)N(Cc2ccc(-c3csnn3)cc2)Cc2ccc3cc(F)c(C(F)(F)P(=O)(O)O)cc3n2)cc1         0.9

Here is the next item to consider.
Asked: So what's the measured bioavailability for this one? O=C(O)COc1ccc(S(=O)(=O)N(Cc2ccc(-c3csnn3)cc2)Cc2ccc3cc(F)c(C(F)(F)P(=O)(O)O)cc3c2)cc1
Given back: 6.51
